Biological target: human PAR2 (Homo sapiens)
Sequence (P55085 26-397): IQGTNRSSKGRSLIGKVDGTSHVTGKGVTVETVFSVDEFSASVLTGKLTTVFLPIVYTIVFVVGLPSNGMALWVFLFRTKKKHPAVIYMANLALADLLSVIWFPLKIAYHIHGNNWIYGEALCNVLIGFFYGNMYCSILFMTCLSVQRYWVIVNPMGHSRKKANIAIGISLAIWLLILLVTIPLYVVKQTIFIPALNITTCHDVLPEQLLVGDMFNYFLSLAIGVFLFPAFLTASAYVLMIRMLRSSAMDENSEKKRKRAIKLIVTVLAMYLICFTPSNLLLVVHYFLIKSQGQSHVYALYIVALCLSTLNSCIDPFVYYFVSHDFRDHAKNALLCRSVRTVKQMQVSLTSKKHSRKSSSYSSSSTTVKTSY
Test: TNFα-stimulated JNK activity (in vitro c-Jun phosphorylation), PAR2 agonist pre-incubation, PAR2 NCTC2544 cells (clone G)
Conditions: 30 min pre-incubation, then TNFα 30 min; densitometry; mean ± s.e.m, at least 4 experiments; read-out: IC50, inhibition of TNFα-stimulated JNK activity
Residues, ends and D or L forms follow the SMILES beside them.
experimentalReadout: IC50 (µM)
One number for each entry, in µM.

What does the data say about its IC50? Entry: CC[C@H](C)[C@H](NC(=O)[C@H](CC(C)C)NC(=O)[C@@H](N)CO)C(=O)NCC(=O)N[C@@H](CCCCN)C(=O)N[C@H](C(=O)O)C(C)C [SLIGKV-OH] (H-SLIGKV-OH)
6.24

Origin of values: paper PMC2806525
